STUDY TARGET: rat CRF2R α receptor (rat, UniProt P47866 20-411)
Sequence (P47866 20-411): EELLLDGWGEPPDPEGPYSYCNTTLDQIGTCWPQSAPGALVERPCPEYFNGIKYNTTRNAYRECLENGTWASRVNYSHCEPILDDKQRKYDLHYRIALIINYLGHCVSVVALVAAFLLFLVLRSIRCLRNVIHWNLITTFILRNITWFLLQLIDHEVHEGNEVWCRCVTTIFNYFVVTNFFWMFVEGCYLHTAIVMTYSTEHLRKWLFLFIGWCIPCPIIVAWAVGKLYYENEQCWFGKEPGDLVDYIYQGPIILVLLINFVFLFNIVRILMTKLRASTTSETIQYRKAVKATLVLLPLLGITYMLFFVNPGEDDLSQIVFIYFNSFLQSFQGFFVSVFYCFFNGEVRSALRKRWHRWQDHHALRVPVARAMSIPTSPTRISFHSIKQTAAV
ASSAY PROTOCOL: cell-based or functional assay
Starred links: 1 amine or outer side, 2 acyl side, 3 side chain; linkers in the order of their positions; H or OH if unused. Non-standard residues stand in square brackets, D forms with d. Groups on a side chain read outwards from the residue. No end group written: not given here. *: point of attachment. C20 diacid = O=C(O)CCCCCCCCCCCCCCCCCCC(=O)*; C18 diacid = O=C(O)CCCCCCCCCCCCCCCCC(=O)*; γGlu = O=C(O)[C@H](CCC(=O)[*:2])N[*:1]; Palmitoyl = CCCCCCCCCCCCCCCC(=O)*; AEEA = NCCOCCOCC(=O)O; Aib = CC(C)(N)C(=O)O
Mark 1 (yes) only for EC50 [nM], 0% HSA (cAMP, A7R5 cells) values smaller than 1 nM; exact matches and larger values are 0 (no).

BINDER | CATEGORY LABEL
FTLSLDVPTKIK([AEEA-AEEA-γGlu-C20 diacid])QILLKQQKQKKERQQAEKNKQLLERV-NH2 [peptide of SEQ ID NO: 60] | 0 (no)
FTLSLDVPIKLK([AEEA-AEEA-γGlu-C20 diacid])QILLKQQKQKKERQQAETNVQLLERV-NH2 [peptide of SEQ ID NO: 62] | 0 (no)
FTLSLDVPIKLK([AEEA-AEEA-γGlu-C20 diacid])QILLEQQKQKKERQQAETNVQLLERV-NH2 [peptide of SEQ ID NO: 63] | 0 (no)
IVLSLD[dV]PTKLK([γGlu-Palmitoyl])QKLLKQERQRKERE[Aib]AEKNKRILERV-NH2 [peptide of SEQ ID NO: 225] | 1 (yes)
Ac-IVLSLD[dV]PIHLK([AEEA-AEEA-γGlu-C18 diacid])QILLEQERQK[Aib]QREQAEKNKQILEQV-NH2 [peptide of SEQ ID NO: 163] | 0 (no)
FTLSLDVPTKIK([AEEA-AEEA-γGlu-C20 diacid])QILFKQQKQKKERQQAEKNKQLLEQI-NH2 [peptide of SEQ ID NO: 58] | 1 (yes)
FTLSLDVPTKIK([AEEA-AEEA-γGlu-C20 diacid])QILLKQQKQKKERQQAETNKQLLERV-NH2 [peptide of SEQ ID NO: 61] | 1 (yes)
FTLSLDVPTKIK([AEEA-AEEA-γGlu-C20 diacid])QILLKQQKQKKERQQAEKNKQLLEQI-NH2 [peptide of SEQ ID NO: 59] | 1 (yes)
